Molecular target: pooled human IgG (human IgG1, 2, 3 and 4)
measurement_type: Enzyme Activity Endpoint Assay (purified): Fab'2 (ng/µL)

| protein | u | measured |
| --- | --- | --- |
| PRT-602 (protein) MANQEIRYSEVTPYHITSVWTKGVTPPANFTQGEDVFHAPYVANQGWYDITKTFNGKDDLLCGAATAGNMLHWWFDQNKDQIERYLEEHPEKQKINFNGEQMFDVKEAIDTKDSQTDSKLFEYFKEKAFPYLSTKHLGVFPDHVIDMFINGYRLSLTNHGPTPVKEGSKDPRGGIFDAVFTRGDQSKLLTSRHDFKEKTLKEISDLIKQELTEGKALGLSHTYANVRINHVINLWGADFDSEGNLKAIYVTDSDSNASIGMKKYYVGVNSAGKVAISAKEIEEDNIGAQVLGLFTLSTGQDIWNQTNLEHHHHHH | ng/µL | 543 |
| PRT-436 (protein) MSQTEDSESLQRLRDIEDFQAEKKDQNVVYTKWLDGVDVKDHDFRKIVDGNIAYYATPLLNGRGFYDINKDFNRDSDKCAAAVAANMFHYWLDRNRDNVDRFLRQNPEKHGIIELPDGQLKLSDFLNTYESDDGYRDKSKLFDFISNNFNGPVWTDKLLDNYINGYAYNYKYGRTIEDPTKNTSKINFFKEVFNEKILTNNHSIRNQNEFSVLLSEALYTGKAIGLSYGPAGLRHSLGHIISVWGADLDADGNVVAIYVTDSDDKKLTIGDERVGLKRYKISTDDEGRLRLTAYEETHNTGGQIRGLWTLDTGKQAWADYFDKTEQTGTDQAEQ | ng/µL | 445 |
| PRT-594 (protein) MANQEIRYSEETPSTITSVWTKGVTPPTDFIQNEDVLHAPYIANQGWYDITKTFNGKDDLLCGAATAGNMLHWWFDQNKEQIENYLKKHPEKQKINFNGEQMFDVKEAIDTKDSQLDSALFEYFKDKAFPYLSTKHLGVFPDHVIDMFINGYRLSLTNHGPTPVKRGTKDPRGGIFDAVFTRGDQSKLLTSRHDFKEKTLNEISDLIKQELTEGKALGLSHTYANVRINHVINLWGADFNAEGNLEAIYVTDSDSNASIGMKKYYVGVNSAGKVAISAKEIEGDNIGAQVLGLFTLSTGQDIWNQTNLEHHHHHH | ng/µL | 138 |
| PRT-440 (protein) MSQTEDSESLQRLRDIEDFQAEKKKQNVVYTKWLDGVDVKDHDFRKIVDGNIAYYATPLLNGRGFYDINKDFNRDSDKCAAAVAANMFHYWLDRNRDNVDRFLRQNPEKHGIIELPDGQLKLSDFLNTYESDDGYRDKSKLFDFISNNFNGPVWTDKLLDNYINGYAYNYKYGRTIEDPTKNTSKINFFKEVFNEKILTNNHSIRNQNELSVLLSEALYTGKAIGLSYGPAGLRHSLGHIISVWGADLDADGNVVAIYVTDSDDKKLTIGDERVGLKRYKISTDDEGRLRLTAYEETHNTGGQIRGLWTLDTGKQAWADYFDKTEQTGTDQAEQ | ng/µL | 575 |
| PRT-441 (protein) MSQTEDSESLQRLRDIEDFQAEKKKQNVVYTKWLDGVDVKDHDFRKIVDGNIAYYATPLLNGRGFYDINKDFNRDSDKCAAAVAANMFHYWLDRNRDNVDRFLRQNPEKHGIIELPDGQLKLSDFLNTYESDDGYRDKSKLFDFISNNFNGPVWTDKLLDNYINGYAYNYKYGRTIEDPTKNTSKINFFKEVFNEKILTNNHSIRNQNEFSVLLSEALYTGKAIGLSYGPAGTRHSLGHIISVWGADLDADGNVVAIYVTDSDDKKLTIGDERVGLKRYKISTDDEGRLRLTAYEETHNTGGQIRGLWTLDTGKQAWADYFDKTEQTGTDQAEQ | ng/µL | 514 |
| PRT-577 (protein) MANQEIRYSKATPSTITSVWTKGVTPPENFIYNEDVLHAPYLANQGWYDITKTFNGKDDLLCGAATAGNMLHWWFDQNKEQIERYLKEHPEKQKINFNGEQMFDVKEAIDTKDSQTNSKLFEYFKDKAFPYLSTKHLGVFPDHVIDMFINGYRLSLTNHGPTPVKEQTKDPRGGIFDAVFTRGDQSKLLTSRHDFKEKTLNEISQLIKQELTEGKALGLSHTYANVRINHVINLWGADFNAEGNLEAIYVTDSDSNASIGMKKYYVGVNSAGKVAISAKEIEGDNIGAQVLGLFTLSTGQDIWQQTNLEHHHHHH | ng/µL | 566 |
| PRT-445 (protein) MSQTEDSESLQRLRDIEDFQAEKKKQNVVYTKWLDGVDVKDHDFRKIVDGNIAYYATPLLNGRGFYDINKDFNRDSDKCAAAVAANMFHYWLDRNRDNVDRFLRQNPEKHGIIELPDGQLKLSDFLNTYESDDGYRDKSKLFDFISNNFNGPVWTDKLLDNYINGYAYNYKYGRTIEDSTKNTSKINFFKEVFNEKILTNNHSIRNQNEFSVLLSEALYTGKAIGLSYGPAGLRHSLGHIISVWGADLDADGNVVAIYVTDSDDKKLTIGDERVGLKRYKISTDDEGRLRLTAYEETHNTGGQIRGLWTLDTGKQAWADYFDKTEQTGTDQAEQ | ng/µL | 559 |
| PRT-438 (protein) MSQTEDSESLQRLRDIEDFQAEKKKQNVVYTKWLDGVDVKDHDFRKIVDGNIAYYATPLLNGRGLYDINKDFNRDSDKCAAAVAANMFHYWLDRNRDNVDRFLRQNPEKHGIIELPDGQLKLSDFLNTYESDDGYRDKSKLFDFISNNFNGPVWTDKLLDNYINGYAYNYKYGRTIEDPTKNTSKINFFKEVFNEKILTNNHSIRNQNEFSVLLSEALYTGKAIGLSYGPAGLRHSLGHIISVWGADLDADGNVVAIYVTDSDDKKLTIGDERVGLKRYKISTDDEGRLRLTAYEETHNTGGQIRGLWTLDTGKQAWADYFDKTEQTGTDQAEQ | ng/µL | 578 |
| PRT-598 (protein) MANQEIRYSEETPSTITSVWTKGVTPPTDFIQNEDVLHAPYIANQGWYDITKTFNGKDDLLCGAATAGNMLHWWFDQNKEQIENYLKKHPEKQKINFNGEQMFDVKEAIDTKDSQTDSALFEYFKDKAFPYLSTKHLGVFPDHVIDMFINGYRLSLTNHGPTPVKRGTKDPRGGIFDAVFTRGDQSKLLTSRHDFKEKTLNEISDLIKQELTEGKALGLSHTYANVRINHVINLWGADFNAEGNLEAIYVTDSDSNASIGMKKYFVGVNSAGKVAISAKEIEGDNIGAQVLGLFTLSTGQDIWNQTNLEHHHHHH | ng/µL | 567 |
